The measurements presented in this section are drawn from the supplement of paper PMC9732359.

protein stability index values, listed per item
Assay method text: protein stability index of a GFP-peptide fusion (yeast GPS) (PSI 1-4); higher = more stable; sorted into four equal gates, so the index is relative within each strain
Setup conditions: pdr5∆

Take a look at these entries with their results.
>  <Monomer sequence>
VGEMKLLKKKDDPSKVR [YLR335W/NUP2]

>  <Reported>
3.32

$$$$
>  <Monomer sequence>
LGKAQNWAKFTATASLG [RPN2]

>  <Reported>
2.56

$$$$

Field request: protein stability index | item: HFLQFSELAGDEELEAE [PRP8]
3.11

Which protein stability index reading was recorded for the sequence FERPAVKEEKEDMETQA [RPC53] ?
2.71

// lookup protein stability index for HIKEASEEVDDLSMVPK [SNF2]
3.24

Find the recorded protein stability index belonging to NTFNYDVKISNDFFDNG [RPN4] and report it.
2.3

Can you share its protein stability index? I mean this sequence: FPMPYENEEFITFLQTL [ECM29]
2.53

Reported protein stability index, sequence KRKKEANEEPNTENVES [ITC1] : ____
2.74

Consider the sequence KGDLRRGFIKSEGSGSS [RPC53] and give its measured protein stability index.
3.37

###

Assay method text: protein stability index of a GFP-peptide fusion (yeast GPS) (PSI 1-4); higher = more stable; sorted into four equal gates, so the index is relative within each strain
Setup conditions: doa10∆
Experimental readout: protein stability index
# answer = number (no unit)

Study these solved cases before continuing.
>  <Monomer sequence>
DPEEVEQQVAEEATTEE [RPS0A]

>  <Reported>
3.3

$$$$
>  <Monomer sequence>
QKKATMSAEEALVYSYI [RPC34]

>  <Reported>
1.43

$$$$
>  <Monomer sequence>
ILNLYSSAHLIRINDEP [YML103C/NUP188]

>  <Reported>
1.99

$$$$

GET /values?readout=protein stability index&item= ENVGTRLLPINVNKKAL [MED11]
2.87

Reported protein stability index, sequence NLRRHSDIVLDKKVTLI [SIN4] : ____
2.47

Which measured protein stability index value corresponds to AYEEEEENEDNDGNNRT [NUT1] ?
3.25

###

Assay method text: protein stability index of a GFP-peptide fusion (yeast GPS) (PSI 1-4); higher = more stable; sorted into four equal gates, so the index is relative within each strain
Setup conditions: ubr1∆
Experimental readout: protein stability index
Just the number.

The examples below pair each entry with its known result.
>  <Monomer sequence>
LYAERVQDRGLSAVAQA [RPS3]

>  <protein stability index>
3.22

$$$$
>  <Monomer sequence>
IKGQCLATLLGHNDWVS [ASC1]

>  <protein stability index>
1.65

$$$$

Entry GTHNMYKEIRDVSRVAA [RPL20A] has what protein stability index?
2.29

# input sequence: KLPLSVINVSAQRDRRY [RPS17A] ; wanted: its protein stability index
1.66

// returns reported protein stability index for input TRKILEILNECHDELKA [MED4]
2.71

###

Assay method text: protein stability index of a GFP-peptide fusion (yeast GPS) (PSI 1-4); higher = more stable; sorted into four equal gates, so the index is relative within each strain
Setup conditions: san1∆
Experimental readout: protein stability index

Worked cases, protein stability index given:
>  <Monomer sequence>
CDLSSKFNKSKAKFTSL [YCS4]

>  <protein stability index>
2.98

$$$$
>  <Monomer sequence>
DSIASVLSPDSNIMSDS [GAL11]

>  <protein stability index>
3.03

$$$$
>  <Monomer sequence>
FEGTDDNEEASVKLDLQ [BRN1]

>  <protein stability index>
3.49

$$$$

Which measured protein stability index value corresponds to KALDRHEFFIANHDDQD [SRP68] ?
2.89

Look at this sequence and give its reported protein stability index. TTSEATANDRQINNVHL [RPN4]
2.49

Return reported protein stability index; argument: ILVFQVSMKANKYQIKK [RPL25]
3.09

Could you tell me which protein stability index is on file for EKFSSFIESIVVDFKNK [SNF12] ?
2.74

What value of measured protein stability index is listed for PDGSFEDWSVEELIVDL [RPO26] ?
3

Fill in: protein stability index of KPKNTKENLSKSSWRQE [SIR4] is ___
1.21

Could you share which protein stability index value was measured for NLATKGMVKLNEYPVAD [REC8] ?
1.46

Consider the sequence shown here: LPKYQTIQYDPPETKLP [SNF5] What is its recorded protein stability index?
2.92

###

Assay method text: protein stability index of a GFP-peptide fusion (yeast GPS) (PSI 1-4); higher = more stable; sorted into four equal gates, so the index is relative within each strain
Setup conditions: doa10∆
Would you mind labelling by protein stability index? At or over 3 is true, under is false.

Some solved cases for reference:
>  <Monomer sequence>
SKLIPEVINKEIENATK [RPS1A]

>  <Group label>
false

$$$$
>  <Monomer sequence>
NVTSFMPFWKFFMKNFP [SRB8]

>  <Group label>
false

$$$$
>  <Monomer sequence>
KYRQTKLSKEERAARVA [RPL5]

>  <Group label>
false

$$$$
>  <Monomer sequence>
ESDSKATLQSNEPTQKD [DSN1]

>  <Group label>
false

$$$$
>  <Monomer sequence>
DLCDVVESKFTEKIKSM [RPC19]

>  <Group label>
true

$$$$
>  <Monomer sequence>
KKGESEKDASGKPSFVF [YOR098C/NUP1]

>  <Group label>
false

$$$$

Does the reported protein stability index for KSMITSEGEQKSAEGNN [YAR002W/NUP60] fall at or above the 3 mark?
true

In plain terms: is recorded protein stability index at least 3 for VREHYLRSDIPCLSRSC [DIS3] ?
false

###

Assay method text: protein stability index of a GFP-peptide fusion (yeast GPS) (PSI 1-4); higher = more stable; sorted into four equal gates, so the index is relative within each strain
Setup conditions: san1∆
Experimental readout: protein stability index
Would you mind answering with just the numeric figure?

Please review the entries below; each comes with its answer.
>  <Monomer sequence>
LKNEGIDLDHKRFLILQ [SMC4]

>  <protein stability index>
2.15

$$$$
>  <Monomer sequence>
SHINTNVGDNNSTASSS [ARP7]

>  <protein stability index>
2.9

$$$$
>  <Monomer sequence>
VASRHPSESEHPIRVLM [YDL116W/NUP84]

>  <protein stability index>
2.9

$$$$
>  <Monomer sequence>
LIYVNPFMLQWGIPLIK [FAS1]

>  <protein stability index>
1.13

$$$$
>  <Monomer sequence>
IQHVGMINGRKLIKFET [FAS1]

>  <protein stability index>
3.05

$$$$
>  <Monomer sequence>
TYGVPGSENKRGSLDSE [NUT1]

>  <protein stability index>
3.23

$$$$

Can you share its protein stability index? I mean this sequence: KQDKTLQKVENQTIKEA [YIL149C/MLP2]
3.15

Entry LYDHWDKYHEQWIKFLL [SSN8] has what protein stability index?
2.84

Look at this sequence and give its reported protein stability index. EGKKVMAPYLPGSRASS [RPN2]
2.4

Would you mind telling me what protein stability index value was observed for VLARISPELSLQRHLSL [RRP43] ?
2.02

Which protein stability index reading was recorded for the sequence PVLSTIAFLVGLVNPKT [SWI3] ?
2.33

I have this sequence here, RAIILERNAAYQKEYET [RPL7A] , and I need its recorded protein stability index.
2.62

For IKHKHKKVKLAVLSYYK [RPS31] , what is its reported protein stability index?
2.37

Reported protein stability index for KVLTALSRLQKSGRING [SMC4] : what is it?
3.29

###

Assay method text: protein stability index of a GFP-peptide fusion (yeast GPS) (PSI 1-4); higher = more stable; sorted into four equal gates, so the index is relative within each strain
Setup conditions: doa10∆
Each entry below carries its recorded protein stability index.
Number, no unit, nothing else.

>  <Monomer sequence>
GGLSGEESIKIYPLIKP [UBP6]

>  <Reported>
2.48

$$$$
>  <Monomer sequence>
IVACELILSGDTTANNG [YJL039C/NUP192]

>  <Reported>
2.66

$$$$
>  <Monomer sequence>
SKALYPDYYMIIKYPVA [SNF2]

>  <Reported>
2.37

$$$$
>  <Monomer sequence>
PIDDTMTLLTDSLRKLY [MTW1]

>  <Reported>
1.89

$$$$

Quick one: protein stability index for HRLSILSHYAKIRPWRT [RPO31] ?
2.81

Look up protein stability index: YWSDKKADTDTLLYEQI [SNF5]
2.55

Quick check: protein stability index of IEYCSAQPSVQSSFAGT [FAS2] ?
2.72

Fill in the blank: the reported protein stability index of ETIKSLEDPYKYHYKEE [CSN9] is ____.
3.17

Need protein stability index of ELMAMNITPRLYTDRSR [RPB2] , thanks.
1.91

Entry under review: HIHDLEKFSPKSFISKL [SRP54] . Reported protein stability index?
1.81

Can you look up the measured protein stability index of NATEVQKESDAKNETNS [ITC1] for me?
2.67

Any idea what protein stability index was measured for FIGRLPIMLRSKNCYLS [RPB2] ?
1.43
